biological target: T1, cSNK:BSA conjugate (bovine, head-to-tail cyclized; conjugated to BSA carrier); assay: BLI 2:1 fit, site 1; 100 nM row
T1 construct: also called BSA-cSNK
T1 sequence (P02769 25-607 limits assumed): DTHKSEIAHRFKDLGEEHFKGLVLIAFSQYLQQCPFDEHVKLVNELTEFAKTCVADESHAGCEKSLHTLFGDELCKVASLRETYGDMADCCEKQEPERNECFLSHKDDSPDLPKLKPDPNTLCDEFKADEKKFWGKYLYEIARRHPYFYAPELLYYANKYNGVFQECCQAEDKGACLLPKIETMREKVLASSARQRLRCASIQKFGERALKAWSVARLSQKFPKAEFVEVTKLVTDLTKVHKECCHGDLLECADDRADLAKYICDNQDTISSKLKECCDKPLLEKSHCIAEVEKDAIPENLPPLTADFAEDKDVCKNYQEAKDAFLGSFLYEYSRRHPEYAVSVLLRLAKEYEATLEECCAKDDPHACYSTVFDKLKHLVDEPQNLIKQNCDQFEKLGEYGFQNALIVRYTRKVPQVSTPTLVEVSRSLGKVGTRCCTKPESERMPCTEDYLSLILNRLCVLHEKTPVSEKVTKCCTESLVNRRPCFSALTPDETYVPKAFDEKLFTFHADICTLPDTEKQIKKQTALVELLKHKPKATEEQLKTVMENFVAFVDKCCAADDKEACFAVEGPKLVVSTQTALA
PROPERTY: kon (M⁻¹ s⁻¹)
Your answer is read as M⁻¹ s⁻¹, so omit the unit and give the number.

Lab note: measured kon of murine monoclonal antibody 5E3 (antibody, V domains shown, mouse antibody of the 5E3 hybridoma; also called murine 5E3; m5E3) VH: QVQLQQSGPELVKPGASVRISCKASGYIFTSYYIQWVIHRPGQGLEWIGWIYPGNVNTKYNEKFKGKATLTADKSSSTAYMQLSRLTSEDSAVYFCARMDYEAHYWGQGTTLTVSS VL: DIQMTQSPSSLSASLGERVSLTCRASQEISGYLTWLQQKPDGTIKRLIYAASTLDSGVPKRFSGSRSGSDYSLTISSLESEDFADYNCLQYANYPRTFGGGTKLEIK was 1.29e+06
